Hello, the source for this data is PubChem BioAssay (NCATS), in case you need it.

Assay method text: qHTS assay for small molecule agonists of retinoid X receptor alpha signaling (AID 588544)
Conditions used: HEK293T RXRa-UAS-bla, beta-lactamase reporter, 18 h; 530 nm emission
Records with an inconclusive call do not appear.
max response values by entry

[
  {
    "Compound": "CCCCCCCCC(=O)O",
    "max response": "-21.9%"
  },
  {
    "Compound": "CN(C)c1nc(=O)n(C2CCC(O)CC2)c(=O)n1C (configuration not stated)",
    "max response": "-9.86%"
  },
  {
    "Compound": "O=C(Cl)c1cccc(C(=O)Cl)c1",
    "max response": "-7.46%"
  },
  {
    "Compound": "O=C(OCC1CCC2OC2C1)C1CCC2OC2C1 (configuration not stated)",
    "max response": "-10.9%"
  },
  {
    "Compound": "CC1COCc2cc3c(cc21)C(C)(C)C(C)C3(C)C (configuration not stated)",
    "max response": "-11.9%"
  },
  {
    "Compound": "CC(=O)Nc1ccc(N=Nc2cc(C)ccc2O)cc1",
    "max response": "3.3%"
  },
  {
    "Compound": "C1CCC2(CCCCO2)OC1",
    "max response": "-20.2%"
  }
]

* * *

Test system: TAB165
Assay method text: qHTS profiling for inhibitors of Plasmodium falciparum proliferation (AID 504749);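 further: 0% = DMSO vehicle and full inhibition = artemisinin control; nearly all actives have a fitted effect of over 60% in size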
Conditions used: P. falciparum in erythrocytes, SYBR Green DNA, 72 h; series mostly up to 28.7 µM
Procedure: NIH National Institute of Allergy and Infectious Diseases [NIAID] NIH Chemical Genomics Center [NCGC] […] Because mature erythrocytes lack DNA, only Plasmodium-derived DNA is detected. NCGC Assay Protocol Summary: The SYBR Green viability assay was adapted from a method described previously (Plouffe et al., 2008). […] The following morning, fluorescence intensity at 485(14) nm excitation and 535(25) nm emission wavelengths was measured on an EnVision (Perkin Elmer) plate reader. […]
Records with an inconclusive call do not appear. Calls of active or inactive are those of the source. Calls follow the shape of the dose curve; as a rule, active = well fitted inhibition curve with a large enough effect; inconclusive = small, poorly fitted or top-dose-only effect; inactive = flat fitted curve, though single readings scatter. Numbered stars: 1 amine (or outer) side, 2 acyl side, 3 side chain; on linkers, the order of the positions; unused ones are H or OH. Bridge positions count the residues as written; N and C are the ends. Square brackets hold non-standard residues; d marks the D form. Peptide text beside a SMILES is read from it. * marks the point of attachment. ξ: configuration not given here. ΔAla(Z-3-ureido) = NC(=O)N/C=C(\N)C(=O)O; ξDab(CH2SO3H) = NC(CCNCS(=O)(=O)O)C(=O)O; X2 = NC1=NC(O)CC(C(N[*:1])C(=O)[*:2])N1; Heptanoyl(6-Me) = CC(C)CCCCC(=O)*; ξβ3hOrn = NCCCC(N)CC(=O)*; Dab = NCC[CH](N)C(=O)O; Dap = NC[CH](N)C(=O)O
Parameter measured: outcome

[
  {
    "Molecule": "NCCCC(N)CC(=O)NC1CNC(=O)C(C2CC(O)N=C(N)N2)NC(=O)/C(=C/NC(N)=O)NC(=O)C(CO)NC(=O)C(CO)NC1=O (stereo not drawn) (ξβ3hOrn-[Dap]SS[ΔAla(Z-3-ureido)][X2]; lactam 1-C; configuration not given here)",
    "Parameter measured": "outcome",
    "Endpoint result": "inactive"
  },
  {
    "Molecule": "NC(=O)CCC1NC(=O)C(Cc2ccccc2)NC(=O)C(Cc2ccc(O)cc2)NC(=O)CCSSCC(C(=O)N2CCCC2C(=O)NC(CCCN=C(N)N)C(=O)NCC(N)=O)NC(=O)C(CC(N)=O)NC1=O (stereo not drawn)",
    "Parameter measured": "outcome",
    "Endpoint result": "inactive"
  },
  {
    "Molecule": "CCC(C)C1NC(=O)C(CCNCS(=O)(=O)O)NC(=O)C(NC(=O)C(CCNCS(=O)(=O)O)NC(=O)C(NC(=O)C(CCNCS(=O)(=O)O)NC(=O)CCCCC(C)C)C(C)O)CCNC(=O)C(C(C)O)NC(=O)C(CCNCS(=O)(=O)O)NC(=O)C(CCNCS(=O)(=O)O)NC(=O)C(C(C)CC)NC1=O (stereo not drawn) ({Heptanoyl(6-Me)}-[ξDab(CH2SO3H)]T[ξDab(CH2SO3H)][Dab][ξDab(CH2SO3H)]II[ξDab(CH2SO3H)][ξDab(CH2SO3H)]T; lactam 4-C; configuration not given here)",
    "Parameter measured": "outcome",
    "Endpoint result": "inactive"
  }
]

* * *

activation values by entry
Assay method text: qHTS assay for environmental chemicals that activate the Aryl hydrocarbon Receptor (AhR) signaling pathway (AID 651777); further: % of control where 0% means no effect; nearly all actives have a fitted effect of over 15% in size
Conditions used: 1A2-DRE human hepatoma cells, luciferase, 24 h; stronger effect = higher value
Inconclusive results are not listed.
Parameter measured: activation (%)

[
  {
    "Molecule": "COc1nc(C)nc(NC(=O)NS(=O)(=O)c2ccccc2OCCCl)n1",
    "Uom": "%",
    "Endpoint result": 2.11
  },
  {
    "Molecule": "CCCCCCOCCOCCO",
    "Uom": "%",
    "Endpoint result": -0.48
  },
  {
    "Molecule": "CNc1nc(=O)n(C2CCCCC2)c(=O)n1C",
    "Uom": "%",
    "Endpoint result": 2.39
  },
  {
    "Molecule": "CCCCC(CC)CN1C(=O)C2C3C=CC(C3)C2C1=O (configuration not stated)",
    "Uom": "%",
    "Endpoint result": -3.03
  },
  {
    "Molecule": "O=c1[nH]c(=O)c2[nH]cnc2[nH]1",
    "Uom": "%",
    "Endpoint result": 0.87
  },
  {
    "Molecule": "Fc1ccc(Br)cc1",
    "Uom": "%",
    "Endpoint result": 2.85
  },
  {
    "Molecule": "CCCCN(CCCC)CCCC",
    "Uom": "%",
    "Endpoint result": -2.43
  },
  {
    "Molecule": "O=[N+]([O-])C(CO)(CO)CO",
    "Uom": "%",
    "Endpoint result": -1.19
  },
  {
    "Molecule": "O=c1[nH]sc2ccccc12",
    "Uom": "%",
    "Endpoint result": 2.41
  },
  {
    "Molecule": "CCCCC(CC)COC(C)=O (configuration not stated)",
    "Uom": "%",
    "Endpoint result": -1.93
  },
  {
    "Molecule": "C[C@]12CC[C@@H]3c4ccc(O)cc4CC[C@H]3[C@@H]1CC[C@H]2O",
    "Uom": "%",
    "Endpoint result": 0.328
  },
  {
    "Molecule": "CCCCCCCCCCCCc1ccccc1",
    "Uom": "%",
    "Endpoint result": 0.463
  },
  {
    "Molecule": "COC(=O)c1ccccc1S(=O)(=O)NC(=O)Nc1nc(OC(F)F)cc(OC(F)F)n1",
    "Uom": "%",
    "Endpoint result": -0.662
  },
  {
    "Molecule": "CC(C)O.CC(C)O.CC(C)O.CC(C)O.[Ti]",
    "Uom": "%",
    "Endpoint result": 0.139
  },
  {
    "Molecule": "O=C(O)C(Oc1ccc(Cl)cc1)Oc1ccc(Cl)cc1",
    "Uom": "%",
    "Endpoint result": -1.04
  },
  {
    "Molecule": "O=C(Cl)c1ccc(C(=O)Cl)cc1",
    "Uom": "%",
    "Endpoint result": -0.806
  },
  {
    "Molecule": "OCCOCCOCCOCCO",
    "Uom": "%",
    "Endpoint result": 2.06
  },
  {
    "Molecule": "CCCCCOC(=O)COc1cc(N2C(=O)C3=C(CCCC3)C2=O)c(F)cc1Cl",
    "Uom": "%",
    "Endpoint result": 0.703
  },
  {
    "Molecule": "O=c1oc(=O)c2cc3c(=O)oc(=O)c3cc12",
    "Uom": "%",
    "Endpoint result": 0.0535
  },
  {
    "Molecule": "CC(=O)CC(=O)Nc1ccc(C)cc1C",
    "Uom": "%",
    "Endpoint result": 0.555
  },
  {
    "Molecule": "CC1(C)C(=O)N(Br)C(=O)N1Cl",
    "Uom": "%",
    "Endpoint result": 1.28
  },
  {
    "Molecule": "CN(C)C(=O)Nc1ccccc1",
    "Uom": "%",
    "Endpoint result": 2.58
  },
  {
    "Molecule": "CC(C)(N=C=O)c1cccc(C(C)(C)N=C=O)c1",
    "Uom": "%",
    "Endpoint result": 0.551
  },
  {
    "Molecule": "CC(C)c1ccc(C(C)C)cc1",
    "Uom": "%",
    "Endpoint result": 0.903
  },
  {
    "Molecule": "C=C(C)C(=O)OCCC[Si](OC)(OC)OC",
    "Uom": "%",
    "Endpoint result": -2.37
  },
  {
    "Molecule": "CC1(C)C(=O)N(Br)C(=O)N1Br",
    "Uom": "%",
    "Endpoint result": 1.3
  },
  {
    "Molecule": "C=Cc1ccc(P(c2ccccc2)c2ccccc2)cc1",
    "Uom": "%",
    "Endpoint result": 0.447
  },
  {
    "Molecule": "Cc1ccc2c(c1)C(=O)OC2=O",
    "Uom": "%",
    "Endpoint result": 2.38
  },
  {
    "Molecule": "CSc1ccc(Cl)cc1",
    "Uom": "%",
    "Endpoint result": -3.53
  },
  {
    "Molecule": "O=C(OCC1CCC2OC2C1)C1CCC2OC2C1 (configuration not stated)",
    "Uom": "%",
    "Endpoint result": 1.05
  },
  {
    "Molecule": "CCCCC(CC)COC(=O)c1ccc(C(=O)OCC(CC)CCCC)cc1 (configuration not stated)",
    "Uom": "%",
    "Endpoint result": -2.7
  },
  {
    "Molecule": "CCC/C(=N\\OCC)C1=C(O)CC(O)(CC(C)S(=O)(=O)CC)CC1=O (configuration not stated)",
    "Uom": "%",
    "Endpoint result": 3.19
  },
  {
    "Molecule": "BrC1CCC(Br)C(Br)CCC(Br)C(Br)CCC1Br (configuration not stated)",
    "Uom": "%",
    "Endpoint result": 1.8
  },
  {
    "Molecule": "c1ccc(B(c2ccccc2)c2ccccc2)cc1",
    "Uom": "%",
    "Endpoint result": 1.54
  },
  {
    "Molecule": "Brc1ccc(Br)c(Br)c1",
    "Uom": "%",
    "Endpoint result": 2.73
  },
  {
    "Molecule": "CC(C)(C)C(O)/C(=C\\c1ccc(Cl)cc1)n1cncn1 (configuration not stated)",
    "Uom": "%",
    "Endpoint result": 3.57
  },
  {
    "Molecule": "C=C(C)C(=O)OCC[N+](C)(C)C",
    "Uom": "%",
    "Endpoint result": -2.41
  },
  {
    "Molecule": "CCCCCCCCCCCO",
    "Uom": "%",
    "Endpoint result": -0.0375
  },
  {
    "Molecule": "COC(=O)c1ccccc1C(=O)O",
    "Uom": "%",
    "Endpoint result": 0.0502
  },
  {
    "Molecule": "CCOC(=O)C(C)Oc1ccc(Oc2nc3ccc(Cl)cc3o2)cc1 (configuration not stated)",
    "Uom": "%",
    "Endpoint result": 0.871
  },
  {
    "Molecule": "CCOC(=O)C1=NN(c2ccc(Cl)cc2Cl)C(C)(C(=O)OCC)C1 (configuration not stated)",
    "Uom": "%",
    "Endpoint result": -3.22
  },
  {
    "Molecule": "CCNc1nc(NC(C)CC)nc(OC)n1 (configuration not stated)",
    "Uom": "%",
    "Endpoint result": 2.63
  },
  {
    "Molecule": "CCCCCCCCCCCCCCCO",
    "Uom": "%",
    "Endpoint result": 2.17
  },
  {
    "Molecule": "C=CC(=O)OCCOc1ccccc1",
    "Uom": "%",
    "Endpoint result": -0.084
  },
  {
    "Molecule": "CCC(C)(C)C1CCC(O)CC1 (configuration not stated)",
    "Uom": "%",
    "Endpoint result": -0.126
  },
  {
    "Molecule": "CC(C)OB(OC(C)C)OC(C)C",
    "Uom": "%",
    "Endpoint result": 9.09
  },
  {
    "Molecule": "COC(=O)C1CCC(C(=O)OC)CC1 (configuration not stated)",
    "Uom": "%",
    "Endpoint result": 0.798
  },
  {
    "Molecule": "CCCN(CCC)c1c([N+](=O)[O-])cc(C(F)(F)F)c(N)c1[N+](=O)[O-]",
    "Uom": "%",
    "Endpoint result": 2.99
  },
  {
    "Molecule": "Cc1ccc(N)c(S(=O)(=O)O)c1",
    "Uom": "%",
    "Endpoint result": 8.24
  },
  {
    "Molecule": "CCc1c(C(=O)O)c(=O)cnn1-c1ccc(Cl)cc1",
    "Uom": "%",
    "Endpoint result": 0.0279
  },
  {
    "Molecule": "Cn1c(=O)[nH]c(=O)n(C2CCCCC2)c1=O",
    "Uom": "%",
    "Endpoint result": -1.1
  },
  {
    "Molecule": "C1CCC2(CCCCO2)OC1",
    "Uom": "%",
    "Endpoint result": 0.829
  },
  {
    "Molecule": "Cc1cc(Cc2cc(C)cc(C(C)(C)C)c2O)c(O)c(C(C)(C)C)c1",
    "Uom": "%",
    "Endpoint result": -12.4
  },
  {
    "Molecule": "CCCCCCCCCCCCCC(=O)OC",
    "Uom": "%",
    "Endpoint result": 0.0228
  },
  {
    "Molecule": "O=C(Cl)c1cccc(C(=O)Cl)c1",
    "Uom": "%",
    "Endpoint result": -0.235
  },
  {
    "Molecule": "CCCCCCCCCCCCCCCCCC(N)=O",
    "Uom": "%",
    "Endpoint result": -1.31
  },
  {
    "Molecule": "COC(=O)c1ccc(C(=O)OC)cc1",
    "Uom": "%",
    "Endpoint result": 2.27
  }
]
